- SYSTEM NAME: T1, biotinylated cynoPD1-ECD-Biotin (cynomolgus)
- T1 construct: extracellular domain; also called cyPD1
- ASSAY OVERVIEW: ELISA on coated cynoPD1-ECD-Biotin
VALUE TYPE: EC50 (ng/mL)
All answers are understood in ng/mL, so give the number only.

Give its EC50 value. Item: PD1-0050 (antibody, V domains shown) VH: DVQLQESGPGLVKPSQSLSLTCTVTGYSITSDYAWNWIRQFPGNKLEWMGYITYTGRTSYNPSLKSRISITRDTSKNQFFLQLNSVTTEDTATYYCAREMDYYGSTLDYWGQGTTLTVSS VL: KIVLTQSPASLAVSLRQRATISCRASESVDRYGNSFIHWYQQKPGQPPKVLIYRASNLESGFPARFSGSGSRTDFTLTIDPVEADDAATYYCQQNNEDPYTFGSGTKLEIK
9.8
